- TESTED SYSTEM: T1, human PD-L1-his tag protein (human, UniProt Q9NZQ7 19-238)
- T1 construct: also called human PD-L1-His protein; recombinant PD-L1 protein; not shown: his tag
- T1 sequence (Q9NZQ7 19-238 limits assumed): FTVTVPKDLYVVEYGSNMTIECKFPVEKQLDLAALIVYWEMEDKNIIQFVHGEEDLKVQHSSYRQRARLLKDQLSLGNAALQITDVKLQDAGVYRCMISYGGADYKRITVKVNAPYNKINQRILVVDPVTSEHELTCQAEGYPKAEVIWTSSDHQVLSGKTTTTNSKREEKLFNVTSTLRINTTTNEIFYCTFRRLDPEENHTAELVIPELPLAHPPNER
- PROTOCOL DESCRIPTION: SPR (Biacore), affinity ranking, PDL1-His
Please respond with reported koff for every item in the list.
Write the number in s⁻¹ without appending the unit.

Task: Dear colleague, please send me the reported koff for Hu89C10H8-12 (antibody, V domains shown, humanized) VH: EVQLVESGGGLVKPGGSLRLSCAASGFTFSNYWMTWIRQAPGKGLEWVASITNTGSSTFYPDSVKGRFTISRDNAKSSLYLQMNSLRAEDTAVYYCTRDTTIAPFDYWGQGTMVTVSS VL: DIQMTQSPSSLSASVGDRVTITCKASQNLNEYLNWYQQKPGKAPKRLIYKTNTLQAGIPSRFSGSGSGIDYTLTISSLQPEDFATYYCSQYNSGNTFGQGTKLEIK when you can.
Output: 7.04e-05

Task: Dear colleague, please send me the reported koff for Hu67F3G7-22 (antibody, V domains shown, humanized) VH: EVQLVQSGAEVKKPGASVKVSCKASGYTFTDFWVSWVRQAPGQGLEWMGEIYPNSGVSRYNEKFKGRVTMTVDKSISTAYMELSRLRSDDTAVYYCTKYFGYTYWFGYWGQGTLVTVSS VL: DIQMTQSPSSLSASVGDRVTITCRASKSVSTYMHWYQQKPGKQPKLLIYSASHLESGVPSRFSGSGSGTDFTLTISSLQPEDFATYYCQQSNELPVTFGGGTKVEIK when you can.
Output: 7.26e-05

Task: Dear colleague, please send me the reported koff for Hu67F3G7-14 (antibody, V domains shown, humanized) VH: EVQLVQSGAEVKKPGASVKVSCKASGYIFTDFWVSWVRQAPGQGLEWIGEIYPNSGVSRYNEKFKGRVTMTVDKSISTAYMELSRLRSDDTAVYYCARYFGYTYWFGYWGQGTLVTVSS VL: DTVLTQSPSSLSASVGDRVTITCRASKSVSTYMHWYQQKPGKQPKLLIYSASHLESGVPSRFSGSGSGTDFTLTISSLQPEDFATYYCQQSNELPVTFGGGTKVEIK when you can.
Output: 0.000109

Task: Dear colleague, please send me the reported koff for Hu67F3G7-11 (antibody, V domains shown, humanized) VH: EVQLVQSGAEVKKPGASVKVSCKASGYTFTDFWVSWVRQAPGQGLEWMGEIYPNSGVSRYNEKFKGRVTMTVDKSISTAYMELSRLRSDDTAVYYCARYFGYTYWFGYWGQGTLVTVSS VL: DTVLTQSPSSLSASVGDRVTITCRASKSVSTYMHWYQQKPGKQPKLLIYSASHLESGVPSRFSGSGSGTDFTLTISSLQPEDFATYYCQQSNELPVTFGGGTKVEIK when you can.
Output: 0.000164

Task: Dear colleague, please send me the reported koff for Hu67F3G7-12 (antibody, V domains shown, humanized) VH: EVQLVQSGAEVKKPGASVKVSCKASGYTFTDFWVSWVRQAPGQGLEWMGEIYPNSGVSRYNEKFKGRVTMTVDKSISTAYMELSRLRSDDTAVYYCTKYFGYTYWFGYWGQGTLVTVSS VL: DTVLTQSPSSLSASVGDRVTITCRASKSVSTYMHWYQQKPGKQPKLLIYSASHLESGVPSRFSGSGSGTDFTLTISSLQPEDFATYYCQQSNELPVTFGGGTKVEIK when you can.
Output: 9.01e-05

Origin of values: patent US20230287125A1
